Data provenance: patent US20220175942A1

- assayed system: T1, CCL5_HUMAN (human, UniProt P13501 24-91)
- T1 chain: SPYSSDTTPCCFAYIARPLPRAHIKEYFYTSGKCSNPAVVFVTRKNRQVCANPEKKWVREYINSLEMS
- assay explanation: BLI
assay metric: Kd (nM)
Write the answer as a number in nM, unit excluded.

Solved entries (count: 3):
binder	numeric readout
P467_RHIPU (other) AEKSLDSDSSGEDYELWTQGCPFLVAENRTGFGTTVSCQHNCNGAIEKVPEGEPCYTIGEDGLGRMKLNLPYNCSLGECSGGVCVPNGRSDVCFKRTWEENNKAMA	7.67
P991_AMBCA (other) ENGEGTTQPDYDNSTDYYNYEDFKCTCPAPHLNNTNGTVMKPIGCYYTCNVTRCTAPDTYPCYNLTEHQAKNLTTSPTTLCAVGNCDHGICVPNGTKELCFKAPNLEE	1.47
P985_AMBPA (other) DEESEELGASTDVDYEELDANCTCPAPALTSTRNNKHYPLGCIYNCSSYNCTIPDGTPCYVLTLGEVKEHLQIGSTVPNCTCGLCRNGTCVSNGTVEECFAVEEIEET	3.52

Now for a further binder.
Name the reported Kd value associated with the binder P1243_AMBAM (other) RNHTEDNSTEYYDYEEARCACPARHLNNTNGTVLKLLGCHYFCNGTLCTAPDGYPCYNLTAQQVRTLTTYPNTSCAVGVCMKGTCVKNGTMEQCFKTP 1.74
